Items are presented alongside their recorded pKi.
MEASUREMENT TARGET: soluble human BACE1 catalytic domain (Homo sapiens, UniProt P56817)
Sequence (P56817 75-416 limits assumed): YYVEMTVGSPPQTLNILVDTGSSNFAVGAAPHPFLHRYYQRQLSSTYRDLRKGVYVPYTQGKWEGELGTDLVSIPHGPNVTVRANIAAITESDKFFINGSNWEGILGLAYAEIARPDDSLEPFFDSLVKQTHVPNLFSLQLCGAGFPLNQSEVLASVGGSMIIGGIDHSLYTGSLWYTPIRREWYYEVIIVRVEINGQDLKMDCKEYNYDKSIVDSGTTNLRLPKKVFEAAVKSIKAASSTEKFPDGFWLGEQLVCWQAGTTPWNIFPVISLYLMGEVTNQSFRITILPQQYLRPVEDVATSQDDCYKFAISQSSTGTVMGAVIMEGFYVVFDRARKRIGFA
pKi: −log10 of the molar value.

| MOLECULE | pKi |
| --- | --- |
| CC1(C)C(=N)N[C@@]2(COCc3ccc(NC(=O)c4ncc(C(F)(F)F)cn4)cc32)CS1(=O)=O [Example E-1] | 6.19 |
| CC1(C)C(=N)N[C@@]2(COCc3ccc(NC(=O)c4cn5cc(C#N)ccc5n4)cc32)CS1(=O)=O [Example E-12] | 6.25 |
| CC1(C)C(=N)N[C@@]2(CCOc3ccc(NC(=O)c4ncc(Cl)cc4F)cc32)CS1(=O)=O [Example C-17] | 8.10 |
| CC1(C)C(=N)N[C@@]2(CCCc3ccc(NC(=O)c4ccc(OC(F)(F)F)cn4)cc32)CS1(=O)=O [Example G-16] | 7.89 |
| CC1(C)C(=N)N[C@@]2(CCCc3ccc(NC(=O)c4ccc(C(F)(F)F)cn4)cc32)CS1(=O)=O [Example G-24] | 8.10 |
| Cc1nc(C(=O)Nc2ccc3c(c2)[C@]2(CCO3)CS(=O)(=O)C(C)(C)C(=N)N2)no1 [Example C-7] | 7.33 |
| Cc1nc(C(=O)Nc2ccc3c(c2)[C@]2(COC3)CS(=O)(=O)C(C)(C)C(=N)N2)no1 [Example E-8] | 6.55 |
| C#CCOc1cnc(C(=O)Nc2ccc3c(c2)[C@]2(CCO3)CS(=O)(=O)C(C)(C)C(=N)N2)cn1 [Example C-3] | 8.52 |
| Cc1cc(C#N)cnc1C(=O)Nc1ccc2c(c1)[C@]1(CCO2)CS(=O)(=O)C(C)(C)C(=N)N1 [Example C-22] | 8.70 |
| CC1(C)C(=N)N[C@@]2(CCOc3ccc(NC(=O)c4ccc(OC(F)(F)F)cn4)cc32)CS1(=O)=O [Example C-11] | 8.00 |
| CC1(C)C(=N)N[C@@]2(CCCc3ccc(NC(=O)c4cn5cc(C#N)ccc5n4)cc32)CS1(=O)=O [Example G-23] | 6.86 |
| CC1(C)C(=N)N[C@@]2(CCCc3ccc(NC(=O)c4ccc(Cl)cn4)cc32)CS1(=O)=O [Example F-1] | 7.96 |
| C#CCOc1cnc(C(=O)Nc2ccc3c(c2)[C@]2(CCC3)CS(=O)(=O)C(C)(C)C(=N)N2)cn1 [Example G-5] | 8.15 |
| COc1cnc(C(=O)Nc2ccc3c(c2)[C@]2(CCO3)CS(=O)(=O)C(C)(C)C(=N)N2)c(C)c1 [Example C-20] | 7.70 |
| CC1(C)C(=N)N[C@@]2(CCCc3ccc(NC(=O)c4ccn(C(F)F)n4)cc32)CS1(=O)=O [Example G-4] | 8.40 |
| COCC(=O)Nc1ccc2c(c1)[C@]1(CCO2)CS(=O)(=O)C(C)(C)C(=N)N1 [Example B-3] | 6.41 |
| CC1(C)C(=N)N[C@@]2(CCOc3ccc(NC(=O)c4cc5ccccn5n4)cc32)CS1(=O)=O [Example C-5] | 6.65 |
| COc1cnc(C(=O)Nc2ccc3c(c2)[C@]2(CCC3)CS(=O)(=O)C(C)(C)C(=N)N2)c(C)c1 [Example G-8] | 7.72 |
| CC1(C)C(=N)N[C@@]2(CCCc3ccc(NC(=O)c4ncc(C(F)(F)F)cn4)cc32)CS1(=O)=O [Example G-22] | 6.80 |
| CC1(C)C(=N)N[C@@]2(COCc3ccc(NC(=O)c4ncc(Cl)cc4F)cc32)CS1(=O)=O [Example E-15] | 7.43 |
| CC1(C)C(=N)N[C@@]2(COCc3ccc(NC(=O)c4ccc(C#N)cn4)cc32)CS1(=O)=O [Example E-14] | 7.96 |
| COc1ccc(C(=O)Nc2ccc3c(c2)[C@]2(COC3)CS(=O)(=O)C(C)(C)C(=N)N2)nc1 [Example E-10] | 6.93 |
| CC1(C)C(=N)N[C@@]2(COCc3ccc(NC(=O)c4ccc(OC(F)F)cn4)cc32)CS1(=O)=O [Example E-18] | 7.47 |
| COc1cnc(C(=O)Nc2ccc3c(c2)[C@]2(COC3)CS(=O)(=O)C(C)(C)C(=N)N2)cn1 [Example E-22] | 6.48 |
| CC1(C)C(=N)N[C@@]2(CCOc3ccc(NC(=O)c4ccc(Cl)cn4)cc32)CS1(=O)=O [Example B-1] | 8.10 |
| CC1(C)C(=N)N[C@@]2(CCCc3ccc(NC(=O)c4ccc(C#N)cn4)cc32)CS1(=O)=O [Example G-21] | 8.40 |
| C#CCOc1ccc(C(=O)Nc2ccc3c(c2)[C@]2(CCO3)CS(=O)(=O)C(C)(C)C(=N)N2)nc1 [Example C-19] | 8.15 |
| CC1(C)C(=N)N[C@@]2(CCCc3ccc(NC(=O)c4ncc(Cl)cc4F)cc32)CS1(=O)=O [Example G-1] | 7.96 |
| Cc1nc(C(=O)Nc2ccc3c(c2)[C@]2(CCC3)CS(=O)(=O)C(C)(C)C(=N)N2)no1 [Example G-13] | 7.08 |
